Test: MDCK-MDR1 permeability assay
Assay type: in vitro ADME
Conditions: dog, MDCK-MDR1, pH 7.4; basolateral to apical, 5 μM, 2 hours
Method: Preparation of MDCK-MDR1 Cells. Cell culture medium of was added to each well of the Transwell insert (50 μL) and reservoir (25 mL). The HTS transwell plates were then incubated at 37° C., 5% CO2 for 1 hour before cell seeding. […] Assessment of Cell Monolayer Integrity. […] Transepithelial electrical resistance (TEER) across the monolayer was measured using Millicell Epithelial Volt-Ohm measuring system (Millipore, USA). […]
measuredProperty: Papp B→A at 2 h, 5 μM
Note to self: number, then unit, no commentary.

Illustrative cases are given below, each with its answer.
>>> observedresult("CC(C)(C)NC[C@H](O)c1cccc(C(F)(F)F)n1")
"19.8 ×10⁻⁶ cm/s"
>>> observedresult("CC(C)(C)NC[C@H](O)c1cccc(C#N)n1")
"16.2 ×10⁻⁶ cm/s"

Proceeding to the next compound to report its Papp B→A at 2 h, 5 μM.
[Q] What value of Papp B→A at 2 h, 5 μM has been recorded for this entry: `Cc1ncccc1[C@@H](O)CNC(C)(C)C`
[A] 11 ×10⁻⁶ cm/s

###

biological target: UniProt:P08588; test: cAMP Gs dynamic HTRF assay, β1 expressing CHO cells; type: cell-based; conditions: B1-AR; CHO-K cells; read-out: Average EC50 [Receptor subtype: B1-AR; Cell type: CHO-K]
Sequence (P08588 whole entry, species assumed): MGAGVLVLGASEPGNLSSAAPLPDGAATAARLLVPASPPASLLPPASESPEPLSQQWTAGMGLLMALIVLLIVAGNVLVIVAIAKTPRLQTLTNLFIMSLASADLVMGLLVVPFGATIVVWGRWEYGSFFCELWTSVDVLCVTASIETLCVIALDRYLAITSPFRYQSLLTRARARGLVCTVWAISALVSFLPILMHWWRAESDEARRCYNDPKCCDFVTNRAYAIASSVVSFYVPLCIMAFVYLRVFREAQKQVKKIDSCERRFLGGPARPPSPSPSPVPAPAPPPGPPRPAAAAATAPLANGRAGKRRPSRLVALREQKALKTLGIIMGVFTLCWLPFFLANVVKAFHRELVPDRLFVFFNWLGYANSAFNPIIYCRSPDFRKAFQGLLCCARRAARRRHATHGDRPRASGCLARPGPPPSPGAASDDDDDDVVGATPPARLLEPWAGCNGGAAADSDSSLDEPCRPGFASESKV
measuredProperty: EC50

>>> observedresult("CC(C)(COc1ccccc1)NC[C@H](O)c1cccc(C(F)(F)F)n1 [Compound 03-184]")
"10 to 100 nM"

[Q] I have this molecule here, [2H]C([2H])([2H])C(NCC(O)c1cccc(C(F)(F)F)n1)(C([2H])([2H])[2H])C([2H])([2H])[2H] (centres unmarked) [Compound 03-49] , and I need its recorded EC50.
[A] > 1000 nM

[Q] Can you check CC(C)(C)NC[C@H](O)c1cccc(C2CCC2)n1 [Compound 03-161] next?
[A] < 10 nM

[Q] # iterate: CC(C)(C)NC[C@@H](O)c1cccc(-c2ccccc2F)n1 [Compound 03-156]
[A] > 1000 nM

[Q] One more molecule: CC(C)(C)NC[C@@H](O)c1nc(C(F)(F)F)cc2ccccc12 [Compound 03-172]
[A] > 1000 nM

[Q] // next record CC(C)(C)NC[C@H](O)c1cccc(N2CCCCC2)n1 [Compound 03-137]
[A] 100 to 1000 nM

###

biological target: β2 adrenergic receptors in human astrocytoma cells (1321N1) (Homo sapiens (Human), UniProt P07550); assay: cAMP HTRF assay in human astrocytoma cells (1321N1); type: cell-based; settings: Endogenous receptor; 1321N1 cells; read-out: Average pEC50 [Receptor subtype: Endogenous; Cell type: 1321N1] (converted)
Sequence (P07550 whole entry): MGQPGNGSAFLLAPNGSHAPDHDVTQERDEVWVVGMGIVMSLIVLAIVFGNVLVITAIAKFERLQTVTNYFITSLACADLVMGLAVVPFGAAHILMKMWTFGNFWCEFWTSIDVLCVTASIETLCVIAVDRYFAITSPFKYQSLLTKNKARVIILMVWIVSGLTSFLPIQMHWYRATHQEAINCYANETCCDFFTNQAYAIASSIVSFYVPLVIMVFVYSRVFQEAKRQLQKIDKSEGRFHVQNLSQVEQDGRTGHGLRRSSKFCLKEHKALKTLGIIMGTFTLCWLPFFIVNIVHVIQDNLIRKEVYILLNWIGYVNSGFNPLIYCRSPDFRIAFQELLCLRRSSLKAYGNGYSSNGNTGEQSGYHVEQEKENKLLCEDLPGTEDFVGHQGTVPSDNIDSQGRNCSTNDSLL
measuredProperty: EC50

[Q] Value lookup for EC50; key = `CC(C)(C)NC[C@H](O)c1cc(F)cnc1C1=CCCC1`
[A] > 1000 nM

[Q] And the next one, `CC(C)(COc1ccccc1)NC[C@H](O)c1cccc(C(F)(F)F)n1` ?
[A] 10 to 100 nM

[Q] Now consider `Cn1cc(-c2cccc([C@@H](O)CNC(C)(C)C)n2)cn1` and answer again.
[A] 10 to 100 nM

[Q] Repeat for the following molecule: `CN(C)c1cccc([C@@H](O)CNC(C)(C)C)n1`
[A] 10 to 100 nM

[Q] Moving on to the next molecule: `CC(C)(C)NC[C@H](O)c1cccc(-n2cccc2)n1`
[A] < 10 nM

[Q] Do the same for CC(C)(C)NCC(O)c1cncc(Cl)n1 (stereo not drawn) please
[A] > 1000 nM
